# Test system: MS2 coat protein
# Assay Overview: apparent KD of MS2 coat protein; designed switch direction (-1 OFF switch, 1 ON switch): 1; higher = weaker reporter binding
# Measurement Setup: input ligand: FMN 200 uM
Property Label: apparent KD of MS2 coat protein (nM)
// units = nM; emit number, no label

Example entries and their recorded answers appear below.
Sequence Entry	Unit	apparent KD of MS2 coat protein
CUGAAAUGUCAAGGAUAUCACGUCGAUUAGACGUGAGAAGGUGAUCUGCACAUGAGGAUCACCCAUGUGUUACAUGGGAGUCAG [Brourd's SSNG1/1-A2 mod 16] (Eterna round: R96, puzzle: Same State NG 1)	nM	600
UCGAGCGUACUUGCAGACAUGAGGAUCACCCAUGUAAAUGGGAAGGAUAUGGUACCGUUUCGGUACCAGAAGGUCCUGGGUGCU [salish99_SSNG3_r04_307] (Eterna round: R96, puzzle: Same State NG 3)	nM	329
GACCGCGAGGAAGGAUAUGGAGCCUUAUUGGCUCCAGAAGGUCCAUAAAGGACAUGAGGAUCACCCAUGUGGGUUGAAGCGGUC [Fiskers NG1ss - 38] (Eterna round: R96, puzzle: Same State NG 1)	nM	24.6
AUUAAUAAUCUAGGAUAUCACGUCGUUUAGACGUGAGAAGGAGAUCAUAACAUGAGGAUCACCCAUGUAUUACAUGAAGUUAAU [SSNG1/7-B3] (Eterna round: R96, puzzle: Same State NG 1)	nM	22.2
GUUACAUGAGGAUCACCCAUGUAUGUGUGGGAGUAAGUGUCUUAGGAUAUCUGUUAUUUAGUUUAAGAGAAGGAAGAUUGUUGU [JMF's solution 41] (Eterna round: R96, puzzle: Same State NG 3)	nM	124

What the record says about UGGCUCAGACGAGGAUAUGGUCAUGGCGCUUCGGCGCAUACAUGAGGAUCACCCAUGUAGGGUGAUCAGAAGGCGUCUGAGCCA [SSNG2/9-A2] (Eterna round: R96, puzzle: Same State NG 2) : apparent KD of MS2 coat protein is 87.2

What the record says about CUCAACAACACAGGAUAUCCAGGGAAAAGACCUGGAGAAGGGUGACCAACAUGAGGAUCACCCAUGUGACAGCCAGGCUGUCUG [Esisiszaon] (Eterna round: R96, puzzle: Same State NG 1) : apparent KD of MS2 coat protein is 164

What the record says about GGAGCCGGCCUAGGAUAUUUCAUAAUUAAACAUGAGGAUCACCCAUGUAGGCCAGAAGGCCUUGGGAAGAAGGAGGUCGGCUCC [Loop Effect - U26,U27] (Eterna round: R96, puzzle: Same State NG 2) : apparent KD of MS2 coat protein is 12.5

What the record says about AACAUGUGGUGUCACAUGAGGAUCACCCAUGUGGUAAAAGCUGAGGAUAUAAAGAGAAACAUGAAUUAGAAGGUAGGAUCACAA [AK SSNG3-V2-19] (Eterna round: R96, puzzle: Same State NG 3) : apparent KD of MS2 coat protein is 177

* * *

Below, each of the sequences is paired with its reported apparent KD of MS2 coat protein value.
# Test system: MS2 coat protein
# Assay Overview: apparent KD of MS2 coat protein; designed switch direction (-1 OFF switch, 1 ON switch): -1; higher = weaker reporter binding
# Measurement Setup: input ligand: none
Please format your answer as a value with the unit trailing.

Example entries and their recorded answers appear below.
Sequence Entry	Result
GAUCAUGCAGGAUAUACAGUAACCAUGAAAACAUGGAUCAAACAUGAGGAUCACCCAUGUAGAAGGGCAUGAUC [Omei Ex2 A22] (Eterna round: R97, puzzle: Exclusion 2)	18.2 nM
UUGUACCGGUGAGGAUAUCGUUGAUAGAACUUUAUGAUAUACAUGAGGAUCACCCAUGUUACUUUCGAGAAGGCAUCGGAUUAU [ExNG2 6th] (Eterna round: R96, puzzle: Exclusion NG 2)	21.8 nM

# input for lookup
Lab note: sequence CGCGAACAUGAGGAUCACCCAUGUGAGGAUAUCAUGCUUCGUAGUAAACUACGAAGUGUGAGAAGGCACAUGCG [Omei Ex1 D5] (Eterna round: R97, puzzle: Exclusion 1) tested on MS2 coat protein; recorded apparent KD of MS2 coat protein was 164 nM

The reported numbers originate from the supplement of paper PMC9170038.
